Where do the numbers come from? From ChEMBL document CHEMBL3045575.

Measured zone of inhibition at 100 µg/disc, listed per entry.
Test system: Fusarium graminearum
Test: Antifungal activity against Fusarium graminearum at 100 ug after 7 days by poison-food method
Format: functional
Settings: 168 h, read-out: IZ
The response must be a number in mm with no trailing unit.

- Molecule: "Cc1ccc(N2C(=O)CC3c4ccc5ccccc5c4OC32)cc1 (stereo not given)"
  Reading Unit: "mm"
  Reading: 50
- Molecule: "O=C1CC2c3ccc4ccccc4c3OC2N1c1cccc([N+](=O)[O-])c1 (stereo not given)"
  Reading Unit: "mm"
  Reading: 25
- Molecule: "O=C1CC2c3ccc4ccccc4c3OC2N1c1ccc([N+](=O)[O-])cc1 (stereo not given)"
  Reading Unit: "mm"
  Reading: 25

stdin: Identify measured zone of inhibition at 100 µg/disc corresponding to O=C1CC2c3ccc4ccccc4c3OC2N1c1ccccc1 (stereo not given)
stdout: 45

stdin: Identify measured zone of inhibition at 100 µg/disc corresponding to O=C1CC2c3ccc4ccccc4c3OC2O1 (stereo not given)
stdout: 45

====

Tested on: Escherichia coli
Assay: Antibacterial activity against Escherichia coli at 100 ppm after 24 hr by cup-plate method
Assay type: functional
Details: read-out: IZ
Value Kind: zone of inhibition at 100 ppm (mm)
The response must be a number in mm with no trailing unit.

stdin: Identify measured zone of inhibition at 100 ppm corresponding to O=C1CC2c3ccc4ccccc4c3OC2N1c1cccc([N+](=O)[O-])c1 (stereo unspecified)
stdout: 9

stdin: Identify measured zone of inhibition at 100 ppm corresponding to Cc1ccc(N2C(=O)CC3c4ccc5ccccc5c4OC32)cc1 (stereo unspecified)
stdout: 10

stdin: Identify measured zone of inhibition at 100 ppm corresponding to O=C1CC2c3ccc4ccccc4c3OC2O1 (stereo unspecified)
stdout: 11

stdin: Identify measured zone of inhibition at 100 ppm corresponding to O=C1CC2c3ccc4ccccc4c3OC2N1c1ccc([N+](=O)[O-])cc1 (stereo unspecified)
stdout: 8

stdin: Identify measured zone of inhibition at 100 ppm corresponding to `CC1(C)S[C@@H]2[C@H](NC(=O)[C@H](N)c3ccccc3)C(=O)N2[C@H]1C(=O)O`
stdout: 4

stdin: Identify measured zone of inhibition at 100 ppm corresponding to O=C1CC2c3ccc4ccccc4c3OC2N1c1ccccc1 (stereo unspecified)
stdout: 11
